tested on: Bacillus subtilis; assay: cleaved RNA product abundance (RNA/gDNA barcode ratio) relative to median wild-type variant (ratio to wild type); higher = more accumulation of the downstream cleavage product; details: experiment (reporter, strain, medium): exp 8a: truncated aprE reporter, strain BJT201 with 2% xylose (RNase J1 expressed); cleavage site: glnRA (positions -5 to +31 mutated)
Catalogue of sequences with associated cleaved RNA product abundance
Experimental Readout: cleaved RNA product abundance

>>> observed("CGACATGTCCCGCTTCTTTCATTAATCCGTTAGCAAATGATTTGCTATATACATTTACCTTTTAAGAGGAGGAAT")
1.28
>>> observed("CGACATGTCCCGCTTCTTTCATTAATCCGTTAGCAACTGTTATGCTATATAGATTTACCTTTTAAGAGGAGGAAT")
1.29
>>> observed("CGACATGTCCCGCTTCTTTCATTAATCCGTTAGCAAATGTTTTGCTATACACATTTACCTTTTAAGAGGAGGAAT")
0.444
>>> observed("CGACATGTCCCGCTTCTTTCATTAATCCGTTATCAACTATTTTGCTATATACATTTACCTTTTAAGAGGAGGAAT")
0.276
>>> observed("CGACATGTCCCGCTTCTTTCATTAATCCGTTACCAACTGTTATGCTATATACATTTACCTTTTAAGAGGAGGAAT")
0.307
>>> observed("CGACATGTCCCGCTTCTTTCATTAATCCATCAGCAACTGTTTTGCTATATACATTTACCTTTTAAGAGGAGGAAT")
0.41
>>> observed("CGACATGTCCCGCTTCTTTCATTAATCCGTTAGGAACTTTTTTGCTATATACATTTACCTTTTAAGAGGAGGAAT")
0.409
>>> observed("CGACATGTCCCGCTTCTTTCATTAATCCGTTAGCAACTCTTTTTCTATATACATTTACCTTTTAAGAGGAGGAAT")
0.642
>>> observed("CGACATGTCCCGCTTCTTTCATTAATCCGTTATCAACTGTTTTTCTATATACATTTACCTTTTAAGAGGAGGAAT")
0.393
>>> observed("CGACATGTCCCGCTTCTTTCATTAATCCGTTAGAAACTGTTTAGCTATATACATTTACCTTTTAAGAGGAGGAAT")
0.295
>>> observed("CGACATGTCCCGCTTCTTTCATTATTCCGTTAACAACTGTTTTACTATATACATTTACCTTTTAAGAGGAGGAAT")
0.257
>>> observed("CGACATGTCCCGCTTCTTTCATTAATCCGTTAGCAACTGTTTTGCTATATGCAATTACCTTTTAAGAGGAGGAAT")
0.289

###

test system: Bacillus subtilis; assay: cleaved RNA product abundance (RNA/gDNA barcode ratio) relative to median wild-type variant (ratio to wild type); higher = more accumulation of the downstream cleavage product; details: experiment (reporter, strain, medium): exp 4a: truncated aprE reporter, strain BJT201 with 2% xylose (RNase J1 expressed); cleavage site: cggR-gapA (positions -7 to +36 mutated)
Quick rule: cleaved RNA product abundance of at least 0.2 means criterion met, below that means criterion not met.

>>> discrete_label("ACAGACGAAGGAGCCGCAAAGAAGTTATTAAGGGATCAACAATCCCTCAATATAAATATCTCTCACTTATTTAAA")
"criterion met"
>>> discrete_label("ACAGACGAAGGAGCCGCAAAGAAGTTATAAAGGGATGAATAATCCCTCAATATAAATTTCTCTCACTTATTTAAA")
"criterion met"
>>> discrete_label("ACAGACGAAGGAGCCGCAAAGAAGTGATTAATGGATGAATAATCCCTCAATATAAATATCTCTCACTTATTTAAA")
"criterion not met"
>>> discrete_label("ACAGACGAAGGAGCCGCAAAGAAGTTATTAAGGGATGAATATTCCCTCAAGATAAATATCTCTCACTTATTTAAA")
"criterion met"
>>> discrete_label("ACAGACGAAGGAGCCGCTAAGAAGTTATTAATGGATGAATAATCCCTCAATATAAATATCTCTCACTTATTTAAA")
"criterion not met"
>>> discrete_label("ACAGACGAAGGAGCCGCAAAGAAGTTATTAAGGGATGAATAATCCATCAAAATAAATATCTCTCACTTATTTAAA")
"criterion met"
>>> discrete_label("ACAGACGAAGGAGCCGCAAACAAGTAATTAAGGGATGAATAATCCCTCAATATAAATATCTCTCACTTATTTAAA")
"criterion met"
>>> discrete_label("ACAGACGAAGGAGCCGCAAAGAAGTTATTAAGGGATGAATAAGCCTTCAATATAAATATCTCTCACTTATTTAAA")
"criterion not met"
>>> discrete_label("ACAGACGAAGGAGCCGCAAAGAAGTTATTAATAGATTAATAATCCCTCAATATAAATATCTCTCACTTATTTAAA")
"criterion not met"

###

Catalogue of sequences with associated cleaved RNA product abundance
tested on: Bacillus subtilis; assay: cleaved RNA product abundance (RNA/gDNA barcode ratio) relative to median wild-type variant (ratio to wild type); higher = more accumulation of the downstream cleavage product; conditions: experiment (reporter, strain, medium): exp 6: tetM reporter, strain 168; cleavage site: cggR-gapA (positions -7 to +36 mutated)
Experimental Readout: cleaved RNA product abundance

>>> observed("ACAGACGAAGGAGCCGCAAAGACGTTATTAAGGGATGAATAATCCCTCAATATAAATATCTCTCACTTATTTAAA")
1.12
>>> observed("ACAGACGAAGGAGCCGCAAAGAAGTTATTAAGAGAAGAATAATCCCTCAATATAAATATCTCTCACTTATTTAAA")
0.107
>>> observed("ACAGACGAAGGAGCCGCAAACAAGTTATTAAGGAATGAATAATCCCTCAATATAAATATCTCTCACTTATTTAAA")
0.139
>>> observed("ACAGACGAAGGAGCCGCAAAGAAGTTATTAAGGGATTAATAATCCCTCAATATAAATATCTCTCACTTATTTAAA")
1.09
>>> observed("ACAGACGAAGGAGCCGAAAAGAAGTTATTAAGGGATGAATAATCCCTCAATATAAATATCTCTCACTTATTTAAA")
0.794
>>> observed("ACAGACGAAGGAGCCGCAAAGAAGTGATTAAGGGATGAATAATCCCTCAATATAAATATCTCTCACTTATTTAAA")
0.274
>>> observed("ACAGACGAAGGAGCCGCAAAGAAGTTATTAAGGGGTGAATAATCCCTCAATATAAATATCTCTCACTTATTTAAA")
0.741
>>> observed("ACAGACGAAGGAGCCGCTAAGAAGTTATTAAGGGATGAATAATCCCTCAATATAAATATCTCTCACTTATTTAAA")
1.03

###

tested on: Bacillus subtilis; assay: cleaved RNA product abundance (RNA/gDNA barcode ratio) relative to median wild-type variant (ratio to wild type); higher = more accumulation of the downstream cleavage product; settings: experiment (reporter, strain, medium): exp 4a: truncated aprE reporter, strain BJT201 with 2% xylose (RNase J1 expressed); cleavage site: cggR-gapA (positions -7 to +36 mutated)
Experimental Readout: cleaved RNA product abundance

>>> observed("ACAGACGAAGGAGCCGCAAAGAAGTTATGAAGGGATGAATAATCCCTCAATATAGATATCTCTCACTTATTTAAA")
0.446
>>> observed("ACAGACGAAGGAGCCGCAAAGAAGTTATTAAGGGAAGAATAATCCCTCAGTATAAATATCTCTCACTTATTTAAA")
0.29
>>> observed("ACAGACGAAGGAGCCGCAATGAAGTTATTATGGGATGAATAATCCCTCAATATAAATATCTCTCACTTATTTAAA")
0.464
>>> observed("ACAGACGAAGGAGCCGCAAAGAAGTTATTAATGGATGAATAATCACTTAATATAAATATCTCTCACTTATTTAAA")
0.194
>>> observed("ACAGACGAAGGAGCCGCAAAGAAGTTATTAAGGTATGAATAATCCCACAATATAAATATCTCTCACTTATTTAAA")
0.0978
>>> observed("ACAGACGAAGGAGCCGCAAAGAAGTTATTAAGGGATGAATATTCCCTCCATATAAATATCTCTCACTTATTTAAA")
0.193
>>> observed("ACAGACGAAGGAGCCGCAAAGAAGTTATGAAGGGATGAATAATTCCTCAATATAAATATCTCTCACTTATTTAAA")
0.316
>>> observed("ACAGACGAAGGAGCCGCAAAGAAGTTATTAAGGGATGAATAAACCCTTAATATAAATATCTCTCACTTATTTAAA")
0.507
>>> observed("ACAGACGAAGGAGCCGCAAAGAAGTTATTAAGGGATGAGTAATCCTTCAATATAAATATCTCTCACTTATTTAAA")
0.346
>>> observed("ACAGACGAAGGAGCCGCAAAGAACTTATTAAGGGAAGAATAATCCCTCAATATAAATATCTCTCACTTATTTAAA")
0.235
>>> observed("ACAGACGAAGGAGCCGCAATGAAGTTATTAAGGGATGAATAATCTCTCAATATAAATATCTCTCACTTATTTAAA")
0.845
